assay_target: Thyroid hormone receptor beta (Homo sapiens) (UniProt P10828)
Sequence (P10828 whole entry, looked up): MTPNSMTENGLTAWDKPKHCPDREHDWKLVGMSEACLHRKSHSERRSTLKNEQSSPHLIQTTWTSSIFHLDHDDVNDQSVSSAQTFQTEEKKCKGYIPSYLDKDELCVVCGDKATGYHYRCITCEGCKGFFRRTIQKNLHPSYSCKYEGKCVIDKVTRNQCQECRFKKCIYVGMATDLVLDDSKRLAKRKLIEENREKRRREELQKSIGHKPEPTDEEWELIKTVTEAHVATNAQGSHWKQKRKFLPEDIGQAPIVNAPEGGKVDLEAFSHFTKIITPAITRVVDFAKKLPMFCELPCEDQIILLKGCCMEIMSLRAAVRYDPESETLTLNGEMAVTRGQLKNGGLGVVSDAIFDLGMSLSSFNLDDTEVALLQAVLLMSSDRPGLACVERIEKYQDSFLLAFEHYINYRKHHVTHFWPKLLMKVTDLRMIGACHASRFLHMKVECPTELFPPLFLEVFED
assay_remarks: qHTS assay for small molecule antagonists of thyroid hormone receptor beta signaling (AID 588547);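 also: cells stimulated with 0.4 nM T3 agonist during compound exposure; series mostly up to about 77 µM; % is scaled to controls: 0 for no effect and ±100 for the full control effect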
assay_context: TR-UAS-bla HEK293, beta-lactamase ratio, antagonist mode, 18 h
Inconclusive results are not listed. The source made the active and inactive calls. Calls follow the shape of the dose curve; as a rule, active = well fitted inhibition curve with a large enough effect in the signal ratio, with a control signal flat (not every such curve was filed as active); inconclusive = small, poorly fitted or top-dose-only effect, or effect the other way, or a change in a side signal; inactive = flat fitted curve, though single readings scatter; the % refers to the signal ratio.
outcome_measure: activity change % (negative = inhibition)

Problem: GET /values?readout=activity change % (negative = inhibition)&item= O=C(O)C1(O)c2ccccc2-c2ccc(Cl)cc21 (centres undefined)
Result: -1.32% (inactive)

* * *

assay_target: Glucocorticoid receptor (Homo sapiens) (UniProt P04150)
Sequence (P04150 whole entry, looked up): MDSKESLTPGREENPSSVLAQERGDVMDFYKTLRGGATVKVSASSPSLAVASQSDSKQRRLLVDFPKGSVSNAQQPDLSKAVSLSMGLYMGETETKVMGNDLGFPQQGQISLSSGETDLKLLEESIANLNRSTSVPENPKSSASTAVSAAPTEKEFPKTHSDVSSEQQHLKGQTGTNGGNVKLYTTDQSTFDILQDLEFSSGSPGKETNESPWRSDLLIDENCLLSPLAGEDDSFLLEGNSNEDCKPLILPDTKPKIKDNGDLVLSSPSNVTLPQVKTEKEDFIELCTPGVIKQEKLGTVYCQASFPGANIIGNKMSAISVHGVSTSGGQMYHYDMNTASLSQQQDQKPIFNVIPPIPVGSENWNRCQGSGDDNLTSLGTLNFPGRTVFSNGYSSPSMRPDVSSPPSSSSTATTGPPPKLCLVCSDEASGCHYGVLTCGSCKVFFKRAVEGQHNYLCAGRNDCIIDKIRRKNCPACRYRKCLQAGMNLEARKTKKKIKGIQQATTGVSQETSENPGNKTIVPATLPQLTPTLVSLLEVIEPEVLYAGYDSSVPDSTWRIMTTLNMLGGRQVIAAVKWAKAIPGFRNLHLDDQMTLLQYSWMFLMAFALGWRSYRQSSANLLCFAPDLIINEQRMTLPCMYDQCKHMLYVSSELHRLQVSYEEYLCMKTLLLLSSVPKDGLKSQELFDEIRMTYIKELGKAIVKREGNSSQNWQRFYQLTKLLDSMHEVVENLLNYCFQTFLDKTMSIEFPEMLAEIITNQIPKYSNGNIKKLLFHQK
assay_remarks: GR-GFP Redistribution (AID 450); also: potency is read from the fitted curve at half-maximal effect
assay_context: U2OS GR-GFP nuclear translocation, laser cytometry, 2 h
Calls of active or inactive are those of the source.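 Rule for the calls: active = compounds whose dose series gives a full or clear partial fitted curve of increased nuclear translocation; inconclusive = weak partial curve or effect only at the top dose; inactive = no dose-dependent translocation response.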
outcome_measure: Potency

{"columns": ["molecule", "outcome_measure", "result"],
 "data": [
  ["CCC(=NCCN1CCCCC1)c1c(O)n(C)c(=O)n(C)c1=O", "Potency", "> 20.6 µM (inactive)"],
  ["CCN(CC)c1ccc(N=Cc2c(O)n(-c3ccccc3C)c(=O)[nH]c2=O)cc1", "Potency", "> 20.6 µM (inactive)"],
  ["CCN1C[C@]2(C)CC[C@@H](O)[C@]34[C@@H]5CC6[C@@H](OC)C[C@@](O)([C@H]5[C@@H]6O)[C@@H](C[C@@H]23)[C@H]14", "Potency", "> 46 µM (inactive)"]
]}

Moving on to another molecule below.
Problem: Given the molecule `COc1cc2c(cc1O)-c1c(O)c(OC)cc3c1[C@H](C2)N(C)CC3` , what is its reported Potency?
Result: > 46 µM (inactive)
